target: human pancreatic α-amylase (HPA) (Homo sapiens, UniProt P04746); test: Hydrolysis rate of substrates by α-amylase (relative to G5P); format: biochemical; conditions: substrate 1.0 mM, pH 7, value of G5P taken as 1
Sequence (P04746 16-511): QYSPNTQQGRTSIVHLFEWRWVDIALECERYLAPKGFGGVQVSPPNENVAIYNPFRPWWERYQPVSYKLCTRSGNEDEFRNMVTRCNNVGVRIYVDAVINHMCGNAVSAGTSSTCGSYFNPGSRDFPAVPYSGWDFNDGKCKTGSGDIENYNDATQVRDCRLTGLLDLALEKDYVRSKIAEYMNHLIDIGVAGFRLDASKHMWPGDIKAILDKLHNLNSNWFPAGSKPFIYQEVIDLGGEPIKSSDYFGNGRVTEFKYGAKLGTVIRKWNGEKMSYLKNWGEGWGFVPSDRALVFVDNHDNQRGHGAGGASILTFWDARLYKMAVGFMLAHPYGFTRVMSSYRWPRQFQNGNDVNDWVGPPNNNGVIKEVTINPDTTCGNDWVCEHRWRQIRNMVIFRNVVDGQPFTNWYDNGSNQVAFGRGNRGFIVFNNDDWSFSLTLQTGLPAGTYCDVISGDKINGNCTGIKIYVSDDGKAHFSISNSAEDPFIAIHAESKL
Hi there, I'd appreciate the recorded hydrolysis rate (relative value) for every entry that follows.
Please respond with just the number, no unit label.

Data request: Recorded hydrolysis rate (relative value) for O=[N+]([O-])c1ccc(O[C@H]2O[C@H](CO)[C@@H](O[C@H]3O[C@H](CO)[C@@H](O[C@H]4O[C@H](CO)[C@@H](O[C@H]5O[C@H](CO)[C@@H](O)[C@H](O)[C@H]5O)[C@H](O)[C@H]4O)[C@H](O)[C@H]3O)[C@H](O)[C@H]2O)cc1 [Substrate G4P] , please?
Data returned: 0.70

Data request: Same again, this time with O=[N+]([O-])c1ccc(O[C@H]2O[C@H](CO)[C@@H](O[C@H]3O[C@H](CO)[C@@H](O[C@H]4O[C@H](CO)[C@@H](O[C@H]5O[C@H](CO)[C@@H](O[C@H]6O[C@H](CO)[C@@H](O[C@H]7O[C@H](CO)[C@@H](O)[C@H](O)[C@H]7O)[C@H](O)[C@H]6O)[C@H](O)[C@H]5O)[C@H](O)[C@H]4O)[C@H](O)[C@H]3O)[C@H](O)[C@H]2O)cc1 [Substrate G6P]
Data returned: 1.7

Data request: How about O=[N+]([O-])c1ccc(O[C@H]2O[C@H](CO)[C@@H](O[C@H]3O[C@H](CO)[C@@H](O[C@H]4O[C@H](CO)[C@@H](O[C@H]5O[C@@H]6COC(c7ccccc7)O[C@H]6[C@H](O)[C@H]5O)[C@H](O)[C@H]4O)[C@H](O)[C@H]3O)[C@H](O)[C@H]2O)cc1 (stereo partly drawn) ?
Data returned: 0

----------
target: human pancreatic α-amylase (HPA) (Homo sapiens, UniProt P04746); assay: Hydrolysis rate of substrates by α-amylase (relative to G5P); format: biochemical; settings: substrate 1.0 mM, pH 7, value of G5P taken as 1
Kindly supply the reported hydrolysis rate (relative value) values for the records listed here.
Give your answer as a number; write no unit.

Data request: Param item = "O=[N+]([O-])c1ccc(O[C@H]2O[C@H](CO)[C@@H](O[C@H]3O[C@H](CO)[C@@H](O[C@H]4O[C@H](CO)[C@@H](O[C@H]5O[C@H](COCc6ccccc6)[C@@H](O)[C@H](O)[C@H]5O)[C@H](O)[C@H]4O)[C@H](O)[C@H]3O)[C@H](O)[C@H]2O)cc1" ; retrieve measured hydrolysis rate (relative value).
Data returned: 0.55

Data request: Record: O=[N+]([O-])c1ccc(O[C@H]2O[C@H](CO)[C@@H](O[C@H]3O[C@H](CO)[C@@H](O[C@H]4O[C@H](CO)[C@@H](O[C@H]5O[C@H](CO)[C@@H](O[C@H]6O[C@H](CO)[C@@H](O[C@H]7O[C@@H]8COC(c9ccccc9)O[C@H]8[C@H](O)[C@H]7O)[C@H](O)[C@H]6O)[C@H](O)[C@H]5O)[C@H](O)[C@H]4O)[C@H](O)[C@H]3O)[C@H](O)[C@H]2O)cc1 (some centres unmarked)
Data returned: 0.4

Data request: Further, for "O=[N+]([O-])c1ccc(O[C@H]2O[C@H](CO)[C@@H](O[C@H]3O[C@H](CO)[C@@H](O[C@H]4O[C@H](CO)[C@@H](O[C@H]5O[C@H](CO)[C@@H](O[C@H]6O[C@H](CO)[C@@H](O[C@H]7O[C@H](CO)[C@@H](O[C@H]8O[C@H](COCc9ccccc9)[C@@H](O)[C@H](O)[C@H]8O)[C@H](O)[C@H]7O)[C@H](O)[C@H]6O)[C@H](O)[C@H]5O)[C@H](O)[C@H]4O)[C@H](O)[C@H]3O)[C@H](O)[C@H]2O)cc1" ?
Data returned: 1.5

Data request: Also check "O=[N+]([O-])c1ccc(O[C@H]2O[C@H](CO)[C@@H](O[C@H]3O[C@H](CO)[C@@H](O[C@H]4O[C@H](CO)[C@@H](O[C@H]5O[C@H](CO)[C@@H](O[C@H]6O[C@H](CO)[C@@H](O[C@H]7O[C@H](COCc8ccccc8)[C@@H](O)[C@H](O)[C@H]7O)[C@H](O)[C@H]6O)[C@H](O)[C@H]5O)[C@H](O)[C@H]4O)[C@H](O)[C@H]3O)[C@H](O)[C@H]2O)cc1"
Data returned: 1.4

Data request: Another: O=[N+]([O-])c1ccc(O[C@H]2O[C@H](CO)[C@@H](O[C@H]3O[C@H](CO)[C@@H](O[C@H]4O[C@H](CO)[C@@H](O[C@H]5O[C@H](CO)[C@@H](O[C@H]6O[C@H](CO)[C@@H](O[C@H]7O[C@H](CO)[C@@H](O[C@H]8O[C@@H]9COC(c%10ccccc%10)O[C@H]9[C@H](O)[C@H]8O)[C@H](O)[C@H]7O)[C@H](O)[C@H]6O)[C@H](O)[C@H]5O)[C@H](O)[C@H]4O)[C@H](O)[C@H]3O)[C@H](O)[C@H]2O)cc1 (some centres unmarked)
Data returned: 1.1

----------
molecular target: HSA (Homo sapiens); assay: Binding mode (distribution of hydrolysis products) by HPLC; assay type: biochemical; details: share of product G3P
QUANTITY: Hydrolysis product G3P (%)
// units = %; emit number, no label

Data request: So what does the record say about Hydrolysis product G3P for O=[N+]([O-])c1ccc(O[C@H]2O[C@H](CO)[C@@H](O[C@H]3O[C@H](CO)[C@@H](O[C@H]4O[C@H](CO)[C@@H](O[C@H]5O[C@H](CO)[C@@H](O[C@H]6O[C@H](CO)[C@@H](O[C@H]7O[C@H](CO)[C@@H](O)[C@H](O)[C@H]7O)[C@H](O)[C@H]6O)[C@H](O)[C@H]5O)[C@H](O)[C@H]4O)[C@H](O)[C@H]3O)[C@H](O)[C@H]2O)cc1 [Substrate G6P] ?
Data returned: 53

Data request: And O=[N+]([O-])c1ccc(O[C@H]2O[C@H](CO)[C@@H](O[C@H]3O[C@H](CO)[C@@H](O[C@H]4O[C@H](CO)[C@@H](O[C@H]5O[C@H](CO)[C@@H](O[C@H]6O[C@H](CO)[C@@H](O[C@H]7O[C@H](CO)[C@@H](O[C@H]8O[C@@H]9COC(c%10ccccc%10)O[C@H]9[C@H](O)[C@H]8O)[C@H](O)[C@H]7O)[C@H](O)[C@H]6O)[C@H](O)[C@H]5O)[C@H](O)[C@H]4O)[C@H](O)[C@H]3O)[C@H](O)[C@H]2O)cc1 (some centres unmarked) ?
Data returned: 25

----------
molecular target: HSA (Homo sapiens, UniProt P0DUB6); assay: Binding mode (distribution of hydrolysis products) by HPLC; type: biochemical; conditions: share of product GP
QUANTITY: Hydrolysis product GP (%)
Note: unit % is implicit; provide only the numeric part.

Data request: Give the measured Hydrolysis product GP of O=[N+]([O-])c1ccc(O[C@H]2O[C@H](CO)[C@@H](O[C@H]3O[C@H](CO)[C@@H](O[C@H]4O[C@H](CO)[C@@H](O[C@H]5O[C@H](CO)[C@@H](O[C@H]6O[C@H](CO)[C@@H](O[C@H]7O[C@@H]8COC(c9ccccc9)O[C@H]8[C@H](O)[C@H]7O)[C@H](O)[C@H]6O)[C@H](O)[C@H]5O)[C@H](O)[C@H]4O)[C@H](O)[C@H]3O)[C@H](O)[C@H]2O)cc1 (some centres unmarked) .
Data returned: 24

Data request: Would you kindly repeat that for O=[N+]([O-])c1ccc(O[C@H]2O[C@H](CO)[C@@H](O[C@H]3O[C@H](CO)[C@@H](O[C@H]4O[C@H](CO)[C@@H](O[C@H]5O[C@H](CO)[C@@H](O[C@H]6O[C@H](CO)[C@@H](O)[C@H](O)[C@H]6O)[C@H](O)[C@H]5O)[C@H](O)[C@H]4O)[C@H](O)[C@H]3O)[C@H](O)[C@H]2O)cc1 [Substrate G5P] ?
Data returned: 6

----------
Biological target: HSA (Homo sapiens, UniProt P0DUB6)
Sequence (P0DUB6 16-511): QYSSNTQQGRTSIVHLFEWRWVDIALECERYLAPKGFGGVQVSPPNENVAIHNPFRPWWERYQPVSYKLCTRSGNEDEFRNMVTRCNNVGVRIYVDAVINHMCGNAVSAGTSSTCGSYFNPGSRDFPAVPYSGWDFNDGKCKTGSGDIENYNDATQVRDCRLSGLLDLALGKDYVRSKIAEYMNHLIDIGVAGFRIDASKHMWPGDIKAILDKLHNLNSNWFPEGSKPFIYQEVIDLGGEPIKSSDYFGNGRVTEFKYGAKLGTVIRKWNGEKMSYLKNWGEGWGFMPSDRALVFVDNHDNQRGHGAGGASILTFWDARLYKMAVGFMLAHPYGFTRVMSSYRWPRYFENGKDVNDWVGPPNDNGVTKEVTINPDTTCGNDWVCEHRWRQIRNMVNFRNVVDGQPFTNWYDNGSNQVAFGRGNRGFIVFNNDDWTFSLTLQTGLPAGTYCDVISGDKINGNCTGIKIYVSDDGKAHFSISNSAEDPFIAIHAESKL
Experiment: Binding mode (distribution of hydrolysis products) by HPLC
Assay type: biochemical
Conditions: share of product G3P
QUANTITY: Hydrolysis product G3P (%)
Please give a number only; it is taken to be in %.

Data request: Data request, read-out Hydrolysis product G3P, for O=[N+]([O-])c1ccc(O[C@H]2O[C@H](CO)[C@@H](O[C@H]3O[C@H](CO)[C@@H](O[C@H]4O[C@H](CO)[C@@H](O[C@H]5O[C@H](CO)[C@@H](O)[C@H](O)[C@H]5O)[C@H](O)[C@H]4O)[C@H](O)[C@H]3O)[C@H](O)[C@H]2O)cc1 [Substrate G4P]
Data returned: 0
